- Test system: NCI/ADR-RES
- EXPERIMENTAL DETAILS: NCI tumour cell line growth inhibition, 48 h
Calls of active or inactive are those of the source. Cut-off read from the data, not from the text of the source: active = GI50 up to about 1.1 µM and inactive = higher. Where a SMILES comes first, the peptide text is derived from it. The star is where a group is joined. ONb = O=[N+]([O-])c1ccc(CO*)cc1; Boc = CC(C)(C)OC(=O)*
Form entry, call: pick from active, inactive

Some solved cases for reference:
COMPOUND	LABEL VALUE
CC(C)CC(NC(=O)OC(C)(C)C)C(=O)NC(CCC(=O)OCc1ccc([N+](=O)[O-])cc1)C(=O)OCc1ccc([N+](=O)[O-])cc1 (stereo not drawn) (Boc-Leu-Glu(ONb)-ONb; configuration not given here)	inactive
c1ccc2nn(C3CCCO3)nc2c1 (stereo not drawn)	inactive
CC(=N/N=C/c1ccccn1)/C(C)=N/N=C(C)/C(C)=N/N=C(C)/C(C)=N/N=C(C)/C(C)=N\N=C\c1ccccn1	inactive

What did the test return for CC(=O)Nc1cc2nc3n(c2cc1C)CCC3OC(C)=O (stereo not drawn) ?
inactive

Query: recorded result category for O=C(N/N=C/c1ccc2c(c1)OCO2)Nc1ccccc1Cl in this test
active

Name the outcome recorded for Clc1cc(N/N=C(/c2ccccc2)c2ncccn2)ncn1 in the assay.
inactive

Tell me the assay call for COc1ccc(NC(=O)/C(=N\NC(=O)C[n+]2ccccc2)c2c(O)c3ccc(O)cc3oc2=O)c([N+](=O)[O-])c1 please.
inactive

In this assay, the call recorded for C=C1[C@@H]2CCC3[C@]4(C)C(CC[C@@]5(C)C(=O)O[C@H](O)[C@@H]45)[C@H](O)[C@]3(C2)[C@H]1OC1OC(CO)C(O)C(O)C1O (stereo partly drawn) was what?
inactive

====

- System: NCI-H23
- EXPERIMENTAL DETAILS: NCI tumour cell line growth inhibition, 48 h
Activity calls are given as the source filed them. Rule as the data show it: active = GI50 up to about 1.1 µM and inactive = higher.
The entries below come with measured GI50 values attached.

// solved cases for GI50 follow
> print(dat)
                                   compound  metric      measured.result
1  O=C(CC1(O)C(=O)Nc2ccccc21)c1ccc(Cl)c(Cl)c1 (stereo unspecified)    GI50  > 100 µM (inactive)
2  Clc1ccc(Cl)c(/N=N\c2cc3c4c(c2)CCN4CCC3)c1    GI50   > 10 µM (inactive)
3            Cn1ccnc1C(O)(c1nccn1C)c1nccn1C    GI50  > 100 µM (inactive)

# query: GI50 of entry c1ccc2[nH]c(-c3nc4ccccc4o3)nc2c1
> 100 µM (inactive)

Entry CCc1ccc2oc(=O)ccc2c1 has what GI50?
> 100 µM (inactive)

Using the record for COC(=O)C1CCC(=O)N1C(=O)Cc1ccc(OC)cc1 (stereo unspecified) , report its GI50.
> 100 µM (inactive)

Form field: reported GI50 of CO/C=C1\OC(=O)C=C1OC
> 100 µM (inactive)

====

- Tested on: MDA-MB-435
- EXPERIMENTAL DETAILS: NCI tumour cell line growth inhibition, 48 h
Calls of active or inactive are those of the source. Cut-off read from the data, not from the text of the source: active = GI50 up to about 1.1 µM and inactive = higher. Where a SMILES comes first, the peptide text is derived from it. The star is where a group is joined. ONb = O=[N+]([O-])c1ccc(CO*)cc1; Boc = CC(C)(C)OC(=O)*
In this exercise, the only acceptable responses are active, inactive

Here's what some known entries look like.
COMPOUND	LABEL VALUE
COc1c(C(=O)/C(=N/Nc2ccc(C(=O)O)cc2)C(C)=O)c(O)cc2occc12	inactive
CCCCOC(=O)NC(Nc1ccc(S(=O)(=O)Nc2ccc(OC)nn2)cc1)(C(F)(F)F)C(F)(F)F	inactive
C=CCn1c(N)c(C#N)c(C#N)c1-c1ccccc1	inactive
CC1(C)CC2=NC(SSC3=C(C#N)C(c4ccc(Br)cc4)C4=C(O)CC(C)(C)CC4=N3)=C(C#N)C(c3ccc(Br)cc3)C2=C(O)C1 (configuration not stated)	inactive
COc1cc2c(c(OC)c1OC)-c1ccc(SC)c(=O)cc1C(NC(=O)c1ccccc1)CC2 (configuration not stated)	active
COc1ccc(C2SCC(=O)N2NC(=O)c2ccc(NC(C)=O)cc2)cc1 (configuration not stated)	inactive

Hi, sorry to bother you, what did the test record for CC(C)CC(NC(=O)OC(C)(C)C)C(=O)NC(CCC(=O)OCc1ccc([N+](=O)[O-])cc1)C(=O)OCc1ccc([N+](=O)[O-])cc1 (stereo not drawn) (Boc-Leu-Glu(ONb)-ONb; configuration not given here) ?
inactive

Hi, sorry to bother you, what did the test record for O=C(CCCN1CCC(Nc2ccc(F)cc2)(c2nnnn2C2CCCCC2)CC1)c1ccc(F)cc1 ?
inactive

====

- System: SN12C
- EXPERIMENTAL DETAILS: NCI tumour cell line growth inhibition, 48 h
The source made the active and inactive calls. Rule as the data show it: active = GI50 up to about 1.1 µM and inactive = higher.
Select the matching outcome among yes (1) (active), no (0) (inactive)

> print(dat)
                                    molecule  assay.target  label.value
 1  COc1ccc(NC(=O)/C(=N\NC(=O)C[n+]2ccccc2)c2c(O)c3ccc(O)cc3oc2=O)c([N+](=O)[O-])c1         SN12C       no (0)
 2  CC(C)=CCCC(C)C1=C(O)C(=O)C(C)=CC1=O (stereo unspecified)         SN12C       no (0)
 3           COc1ccc(NCc2c(O)ccc3ccccc23)cc1         SN12C       no (0)
 4  COc1ccc(/N=N/C(=O)NC(CC(C)C)C(=O)NC(Cc2ccccc2)C(=O)O)cc1 (stereo unspecified)         SN12C       no (0)
 5  COc1ccc(C2N(c3ccc(C)c(N=C=O)c3)C(=O)N3C(c4ccc(OC)cc4)N(c4ccc(C)c(N=C=O)c4)C(=O)N23)cc1 (stereo unspecified)         SN12C       no (0)
 6  CCCC(=O)N/S(=N/S(=O)(=O)c1ccc(Cl)cc1)C(Cl)(Cl)Cl (stereo unspecified)         SN12C       no (0)
 7  Cc1nnc(S(=O)(=O)c2ccc(/N=N/c3c(N)nc(N)nc3N)cc2)s1         SN12C       no (0)
 8  O=C(CCc1ccccc1)On1c(-c2ccccc2)nc2ccccc2c1=S         SN12C       no (0)
 9  CC(C)C(NCc1c(O)ccc2c(-c3ccccc3)cc(=O)oc12)C(=O)O (stereo unspecified)         SN12C       no (0)
10          O=C1C=C(NCCc2ccccc2)c2ccccc2C1=O         SN12C       no (0)

Kindly provide the recorded test outcome for the following molecule: COc1cc(Br)c(CC2(C#N)c3ccccc3C3C(N2C(=O)c2ccccc2)C3(Cl)Cl)cc1OC (stereo unspecified)
no (0)

Lab log entry: CSC1=C(C(=O)Nc2ccc(Cl)cc2)C(N)=NC1=O — outcome as called in the assay?
no (0)

====

- Test system: ACHN
- EXPERIMENTAL DETAILS: NCI tumour cell line growth inhibition, 48 h
The source made the active and inactive calls. Rule as the data show it: active = GI50 up to about 1.1 µM and inactive = higher. Where a SMILES comes first, the peptide text is derived from it. [ ]: non-standard residue; d: D form. The star is where a group is joined. ξ: configuration not given here. ξD = NC(CC(=O)O)C(=O)O; Boc = CC(C)(C)OC(=O)*; Aib = CC(C)(N)C(=O)O; OBn = c1ccc(CO*)cc1
METRIC: GI50

As a guide, the following entries are already answered.
> print(dat)
                                   compound  assay.target  metric      measured.result
1  CC(C)(C)OC(=O)NC(CC(=O)OCc1ccccc1)C(=O)NC(C)(C)C(N)=O (stereo not given) (Boc-[ξD](OBn)-[Aib]-NH2)          ACHN    GI50  > 100 µM (inactive)
2  O=C(Cc1ccc(Cl)c(Cl)c1)N(CCc1ccc(Cl)c(Cl)c1)CCN1CCCC1          ACHN    GI50   1.71 µM (inactive)
3  O=C(NC12CC3CC(CC(C3)C1)C2)C(=O)c1c[nH]c2ccc([N+](=O)[O-])cc12          ACHN    GI50   90.4 µM (inactive)
4  CCOC(=O)c1c[nH]cc1-c1cn(S(=O)(=O)c2ccccc2)cc1C          ACHN    GI50   18.9 µM (inactive)
5  CC[C@@H]1C[C@H]2CC3c4[nH]c5ccc(O)cc5c4CCN(C2)C31          ACHN    GI50  > 100 µM (inactive)

I am curious: what GI50 value has been reported for CC(=O)Nc1ccccc1-c1cnc2ccccc2n1 ?
> 100 µM (inactive)

Report GI50 for COc1cc(-c2cccs2)sc1-c1cccs1 please.
53.5 µM (inactive)

Any idea what its GI50 is? The compound is CC1=Cc2cccc(C)c2C(=O)C1=O
5.12 µM (inactive)

Bench note: what GI50 did Nc1c(Br)cc(-c2nc3ccccc3s2)cc1Br show?
> 100 µM (inactive)

May I ask what GI50 has been recorded for COc1cc(/C=N\c2nc(-c3ccc(NS(=O)(=O)c4ccc(Cl)c(OC)c4)cc3)cs2)ccc1O ?
50.7 µM (inactive)
